Biological target: IGF1R (Homo sapiens, UniProt P08069)
Construct: purchased Eurofins DiscoverX KINOMEscan (scanTK)
Sequence (P08069 31-1367): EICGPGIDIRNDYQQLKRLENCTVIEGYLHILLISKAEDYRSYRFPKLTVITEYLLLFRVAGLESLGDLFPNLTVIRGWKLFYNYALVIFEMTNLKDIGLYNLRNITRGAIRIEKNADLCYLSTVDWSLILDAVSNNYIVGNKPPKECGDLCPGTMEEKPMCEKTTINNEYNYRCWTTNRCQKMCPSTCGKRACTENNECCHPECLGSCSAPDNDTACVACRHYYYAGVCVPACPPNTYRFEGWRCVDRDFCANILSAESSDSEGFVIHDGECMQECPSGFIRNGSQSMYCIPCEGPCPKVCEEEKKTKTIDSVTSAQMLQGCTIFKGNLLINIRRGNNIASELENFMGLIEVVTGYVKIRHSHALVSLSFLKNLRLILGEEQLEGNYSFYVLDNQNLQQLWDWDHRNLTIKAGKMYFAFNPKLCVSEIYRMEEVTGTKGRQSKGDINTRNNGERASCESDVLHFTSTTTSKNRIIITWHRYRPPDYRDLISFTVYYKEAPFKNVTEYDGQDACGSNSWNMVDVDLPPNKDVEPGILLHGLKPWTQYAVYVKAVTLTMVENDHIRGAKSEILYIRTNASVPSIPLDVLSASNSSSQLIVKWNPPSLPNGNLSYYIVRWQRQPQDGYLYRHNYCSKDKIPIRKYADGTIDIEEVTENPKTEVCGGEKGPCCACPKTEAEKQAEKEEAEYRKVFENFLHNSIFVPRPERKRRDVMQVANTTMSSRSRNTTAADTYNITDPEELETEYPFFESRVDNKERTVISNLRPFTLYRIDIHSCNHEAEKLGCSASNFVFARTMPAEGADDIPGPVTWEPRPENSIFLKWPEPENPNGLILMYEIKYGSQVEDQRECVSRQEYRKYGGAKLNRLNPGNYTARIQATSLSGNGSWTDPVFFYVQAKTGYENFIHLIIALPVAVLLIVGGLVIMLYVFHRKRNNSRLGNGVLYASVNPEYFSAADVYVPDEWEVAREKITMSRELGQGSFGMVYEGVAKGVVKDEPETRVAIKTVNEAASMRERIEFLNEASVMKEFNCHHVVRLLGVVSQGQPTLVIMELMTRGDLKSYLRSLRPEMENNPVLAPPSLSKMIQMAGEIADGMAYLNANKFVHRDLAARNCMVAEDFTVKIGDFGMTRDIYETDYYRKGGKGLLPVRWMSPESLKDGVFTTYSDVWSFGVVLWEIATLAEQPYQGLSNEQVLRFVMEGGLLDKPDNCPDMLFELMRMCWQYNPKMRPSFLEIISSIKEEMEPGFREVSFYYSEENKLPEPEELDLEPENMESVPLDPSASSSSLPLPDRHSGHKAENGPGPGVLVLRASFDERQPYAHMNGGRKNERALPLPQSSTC
Assay: KINOMEscan ScanTK
Assay type: binding
Settings: read-out: %Control @1000nM
Answer each item with its documented remaining binding at 1 µM.
Answers are plain numbers, in %.

For each of the compounds below, note its remaining binding at 1 µM.
1. CNC(=O)c1cnc(S(C)(=O)=O)nc1N1CCCC(n2nc(-c3ccc(Oc4ccccc4)cc3)c3c(N)ncnc32)C1 (centres unmarked)
2. Cc1cnc(S(C)(=O)=O)nc1N1CCCC(n2nc(-c3ccc(Oc4ccccc4)cc3)c3c(N)ncnc32)C1 (centres unmarked)
3. C=CC(=O)N1CCC[C@@H](n2nc(-c3ccc(Oc4ccccc4)cc3)c3c(N)ncnc32)C1 [Compound 1g, Ibrutinib, reference compound]
4. CCOC(=O)c1cnc(S(C)(=O)=O)nc1N1CCC[C@@H](n2nc(-c3ccc(Oc4ccccc4)cc3)c3c(N)ncnc32)C1
5. COC(=O)c1cnc(S(C)(=O)=O)nc1N1CCCC(n2nc(-c3ccc(Oc4ccccc4)cc3)c3c(N)ncnc32)C1 (centres unmarked)

Result:
1. 100
2. 100
3. 96
4. 92
5. 94

====

Target: ABL1(F317I)-nonphosphorylated (Homo sapiens, UniProt P00519, F317I)
Construct: purchased Eurofins DiscoverX KINOMEscan (scanTK)
Sequence (P00519 whole entry F317I): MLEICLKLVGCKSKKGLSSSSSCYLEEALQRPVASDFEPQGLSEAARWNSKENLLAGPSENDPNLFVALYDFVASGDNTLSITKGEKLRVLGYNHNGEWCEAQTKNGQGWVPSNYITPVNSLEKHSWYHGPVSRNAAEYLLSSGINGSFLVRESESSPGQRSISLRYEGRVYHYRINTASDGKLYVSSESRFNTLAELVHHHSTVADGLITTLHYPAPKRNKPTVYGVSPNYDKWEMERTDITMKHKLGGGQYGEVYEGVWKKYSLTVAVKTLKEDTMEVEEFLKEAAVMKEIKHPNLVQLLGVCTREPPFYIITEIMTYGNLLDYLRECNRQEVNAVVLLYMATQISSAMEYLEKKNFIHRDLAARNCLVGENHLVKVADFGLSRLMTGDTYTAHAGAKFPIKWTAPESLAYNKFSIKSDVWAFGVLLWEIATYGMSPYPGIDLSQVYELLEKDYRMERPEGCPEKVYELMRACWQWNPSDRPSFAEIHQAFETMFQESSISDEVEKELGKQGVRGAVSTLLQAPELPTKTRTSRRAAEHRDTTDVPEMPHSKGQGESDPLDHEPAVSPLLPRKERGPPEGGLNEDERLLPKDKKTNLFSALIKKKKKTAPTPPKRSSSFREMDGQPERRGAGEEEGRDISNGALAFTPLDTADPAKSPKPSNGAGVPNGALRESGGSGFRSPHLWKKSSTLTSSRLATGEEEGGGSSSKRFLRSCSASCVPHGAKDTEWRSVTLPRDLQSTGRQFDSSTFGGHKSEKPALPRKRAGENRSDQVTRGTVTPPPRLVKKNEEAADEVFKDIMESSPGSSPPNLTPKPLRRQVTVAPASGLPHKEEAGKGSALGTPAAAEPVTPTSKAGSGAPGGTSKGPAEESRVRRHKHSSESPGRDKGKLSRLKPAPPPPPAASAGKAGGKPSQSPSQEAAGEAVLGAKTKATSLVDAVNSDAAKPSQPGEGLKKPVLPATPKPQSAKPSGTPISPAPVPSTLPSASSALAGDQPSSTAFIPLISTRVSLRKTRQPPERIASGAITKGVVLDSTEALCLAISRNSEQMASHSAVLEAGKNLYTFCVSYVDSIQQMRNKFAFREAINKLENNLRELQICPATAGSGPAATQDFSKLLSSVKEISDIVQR
Assay: KINOMEscan ScanTK
Assay type: binding
Conditions: @1000nM, read-out: %Control
Classify: criterion met when remaining binding at 1 µM is strictly less than 80%; criterion not met when remaining binding at 1 µM is not.

// below: answered molecules
Task: Check if remaining binding at 1 µM falls below 80% for C=CC(=O)N1CCC[C@@H](n2nc(-c3ccc(Oc4ccccc4)cc3)c3c(N)ncnc32)C1 [Compound 1g, Ibrutinib, reference compound] .
Result: criterion met

Task: Now the molecule CNC(=O)c1cnc(S(C)(=O)=O)nc1N1CCCC(n2nc(-c3ccc(Oc4ccccc4)cc3)c3c(N)ncnc32)C1 (centres unmarked)
Result: criterion not met

Okay, now this molecule:
Task: Is remaining binding at 1 µM strictly under 80% for the entry `CCOC(=O)c1cnc(S(C)(=O)=O)nc1N1CCC[C@@H](n2nc(-c3ccc(Oc4ccccc4)cc3)c3c(N)ncnc32)C1` ?
Result: criterion not met

====

Molecular target: FLT3-autoinhibited (Homo sapiens)
Construct: purchased Eurofins DiscoverX KINOMEscan (scanTK)
Sequence (P36888 27-993): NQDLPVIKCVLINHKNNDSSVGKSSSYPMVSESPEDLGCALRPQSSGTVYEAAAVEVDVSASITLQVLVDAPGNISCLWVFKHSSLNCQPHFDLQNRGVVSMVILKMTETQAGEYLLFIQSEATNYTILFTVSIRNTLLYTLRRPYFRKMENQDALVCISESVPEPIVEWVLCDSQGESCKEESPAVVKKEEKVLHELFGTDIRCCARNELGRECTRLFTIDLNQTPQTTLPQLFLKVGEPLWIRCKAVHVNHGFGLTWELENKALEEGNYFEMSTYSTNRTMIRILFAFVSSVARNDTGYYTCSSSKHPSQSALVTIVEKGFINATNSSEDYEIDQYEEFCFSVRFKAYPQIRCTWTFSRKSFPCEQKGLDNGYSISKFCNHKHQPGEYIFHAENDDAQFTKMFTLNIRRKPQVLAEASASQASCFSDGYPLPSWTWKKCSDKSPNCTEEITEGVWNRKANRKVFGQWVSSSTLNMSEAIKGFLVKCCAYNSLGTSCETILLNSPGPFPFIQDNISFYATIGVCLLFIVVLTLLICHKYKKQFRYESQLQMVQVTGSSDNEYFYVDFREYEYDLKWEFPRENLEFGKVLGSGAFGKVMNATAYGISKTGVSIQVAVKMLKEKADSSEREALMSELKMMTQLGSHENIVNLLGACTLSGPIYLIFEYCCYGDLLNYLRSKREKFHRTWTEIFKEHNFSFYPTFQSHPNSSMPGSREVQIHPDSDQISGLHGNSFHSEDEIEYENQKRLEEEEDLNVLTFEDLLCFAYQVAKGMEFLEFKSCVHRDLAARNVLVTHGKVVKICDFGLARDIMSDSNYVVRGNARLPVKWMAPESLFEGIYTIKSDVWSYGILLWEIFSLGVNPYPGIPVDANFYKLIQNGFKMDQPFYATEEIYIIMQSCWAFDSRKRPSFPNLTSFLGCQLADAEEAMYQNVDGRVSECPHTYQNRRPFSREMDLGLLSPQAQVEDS
Experiment: KINOMEscan ScanTK
Assay type: binding
Conditions: read-out: %Control @1000nM
Field: remaining binding at 1 µM. Provide a value for each of the molecules that follow.
One number for each entry, in %.

Give one value of remaining binding at 1 µM per listed molecule.
1. Cc1cnc(S(C)(=O)=O)nc1N1CCCC(n2nc(-c3ccc(Oc4ccccc4)cc3)c3c(N)ncnc32)C1 (stereo not shown)
2. COC(=O)c1cnc(S(C)(=O)=O)nc1N1CCCC(n2nc(-c3ccc(Oc4ccccc4)cc3)c3c(N)ncnc32)C1 (stereo not shown)
3. CCOC(=O)c1cnc(S(C)(=O)=O)nc1N1CCC[C@@H](n2nc(-c3ccc(Oc4ccccc4)cc3)c3c(N)ncnc32)C1
4. CNC(=O)c1cnc(S(C)(=O)=O)nc1N1CCCC(n2nc(-c3ccc(Oc4ccccc4)cc3)c3c(N)ncnc32)C1 (stereo not shown)

Result:
[79, 90, 100, 100]

====

Target: HCK (Homo sapiens, UniProt P08631)
Construct: purchased Eurofins DiscoverX KINOMEscan (scanTK)
Sequence (P08631 whole entry): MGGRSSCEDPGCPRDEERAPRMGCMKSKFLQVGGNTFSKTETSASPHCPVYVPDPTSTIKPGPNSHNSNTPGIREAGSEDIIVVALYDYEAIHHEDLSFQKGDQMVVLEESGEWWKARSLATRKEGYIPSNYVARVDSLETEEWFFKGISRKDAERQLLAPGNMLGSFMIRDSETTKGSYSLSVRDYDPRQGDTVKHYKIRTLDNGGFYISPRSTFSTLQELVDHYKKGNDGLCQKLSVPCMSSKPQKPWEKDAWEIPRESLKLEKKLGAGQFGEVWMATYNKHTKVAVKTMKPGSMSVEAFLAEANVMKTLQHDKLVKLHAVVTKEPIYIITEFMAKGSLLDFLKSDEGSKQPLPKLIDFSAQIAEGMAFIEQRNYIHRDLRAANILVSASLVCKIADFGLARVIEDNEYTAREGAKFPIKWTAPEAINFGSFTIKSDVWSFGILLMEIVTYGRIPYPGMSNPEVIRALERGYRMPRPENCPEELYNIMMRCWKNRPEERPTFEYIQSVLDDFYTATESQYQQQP
Experiment: KINOMEscan ScanTK
Assay type: binding
Conditions: @1000nM, read-out: %Control
The label is Met for remaining binding at 1 µM below 6% and Not met for remaining binding at 1 µM equal to or exceeding 6%.

Task: Given the entry CNC(=O)c1cnc(S(C)(=O)=O)nc1N1CCCC(n2nc(-c3ccc(Oc4ccccc4)cc3)c3c(N)ncnc32)C1 (centres unmarked) , would its reported remaining binding at 1 µM be below 6%?
Result: Not met

Task: Ok, now `CCOC(=O)c1cnc(S(C)(=O)=O)nc1N1CCC[C@@H](n2nc(-c3ccc(Oc4ccccc4)cc3)c3c(N)ncnc32)C1`
Result: Not met

Task: Queued: Cc1cnc(S(C)(=O)=O)nc1N1CCCC(n2nc(-c3ccc(Oc4ccccc4)cc3)c3c(N)ncnc32)C1 (centres unmarked)
Result: Not met

Task: And for COC(=O)c1cnc(S(C)(=O)=O)nc1N1CCCC(n2nc(-c3ccc(Oc4ccccc4)cc3)c3c(N)ncnc32)C1 (centres unmarked) ?
Result: Not met

Task: Also, C=CC(=O)N1CCC[C@@H](n2nc(-c3ccc(Oc4ccccc4)cc3)c3c(N)ncnc32)C1 [Compound 1g, Ibrutinib, reference compound] please.
Result: Met

From: paper PMC11345841
